Entries and their measured pIC50 follow.
# test system: Cytochrome P450 3A4 (Homo sapiens, UniProt P08684)
# Sequence (P08684 whole entry): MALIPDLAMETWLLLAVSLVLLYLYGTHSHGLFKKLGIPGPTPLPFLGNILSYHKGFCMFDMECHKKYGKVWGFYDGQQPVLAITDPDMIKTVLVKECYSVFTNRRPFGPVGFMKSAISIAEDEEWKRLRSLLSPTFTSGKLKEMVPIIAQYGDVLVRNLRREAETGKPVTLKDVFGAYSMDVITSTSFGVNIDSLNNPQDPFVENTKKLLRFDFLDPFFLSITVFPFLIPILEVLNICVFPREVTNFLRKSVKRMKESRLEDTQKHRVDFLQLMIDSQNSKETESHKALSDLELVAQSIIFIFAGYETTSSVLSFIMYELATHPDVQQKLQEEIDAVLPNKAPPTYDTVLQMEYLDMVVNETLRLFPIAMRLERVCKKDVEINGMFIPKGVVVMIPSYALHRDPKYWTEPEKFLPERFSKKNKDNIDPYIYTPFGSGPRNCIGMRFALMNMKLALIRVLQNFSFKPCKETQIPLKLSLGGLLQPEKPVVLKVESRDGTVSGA
In plain terms, pIC50 is the concentration in mol/L turned into minus its base-10 logarithm.

• OCc1ncc2n1-c1ccc(Cl)cc1C(c1ccccc1F)=NC2 [ALPHA-HYDROXY-MIDAZOLAM] = 5.00

Asked: Identify pIC50 associated with the compound OC1N=C(c2ccccc2F)c2cc(Cl)ccc2-n2cncc21 (configuration not stated)
Given back: 5.00
